Assay: chemical genetic growth profiling, strain panel (AID 1159580);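 also: tested at 20 µM; growth read once vehicle control cultures reached saturation at 30 °C; 1 = growth at the plate median or of vehicle wells; lower values mean less growth of the strain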
Settings: S. cerevisiae strains, growth OD, strain wild type, active compounds read low
The campaign covered roughly 5,500 compounds. About 2,000 (36%) were called active. Inconclusive results (about 18%) are left out. The list shows a part of the results.
normalized growth strictly under 1 means condition met; at 1 or over means condition not met.

Sample answers from the record:
1. CC(C)C1=CC2=CCC3[C@](C)(CCC[C@]3(C)C(=O)O)C2CC1 (stereo partly drawn) | condition met
2. COC(=O)c1ccc(-c2ccccc2F)cc1 | condition met
3. NC(=O)N/N=C\c1ccc([N+](=O)[O-])o1 | condition not met

Given O=C(O)CCNC(=S)Nc1cccc(C(F)(F)F)c1 , is recorded normalized growth strictly lower than 1?
condition met

====

normalized growth by entry:
Test: chemical genetic growth profiling, strain panel (AID 1159580);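 also: tested at 20 µM; growth read once vehicle control cultures reached saturation at 30 °C; 1 = growth at the plate median or of vehicle wells; lower values mean less growth of the strain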
Conditions: S. cerevisiae deletion strains, growth OD, locus YBL061C, strain skt5, active compounds read low
Out of some 5,500 compounds screened, about 2,000 (36%) were called active. Inconclusive results (about 18%) are left out. This is one part of the list.
Answer as a number with no unit attached.

Please review the following examples before continuing.
1. O=C(NC(Cc1cc(=O)[nH]c2ccccc12)C(=O)O)c1ccc(Cl)cc1 (stereo not drawn) | 1
2. Nc1nccs1 | 0.995
3. COc1ccc(CN(CCN(C)C)c2ncccn2)cc1 | 1.01

Item under review: CC(=O)O[C@H]1C[C@@H](OC(C)=O)C(C)(C)C2C[C@@H](OC(C)=O)[C@]3(C)C(CC[C@@]4(C)[C@H](c5ccoc5)C(=O)[C@H]5O[C@]543)[C@]21C (stereo partly drawn) . Reported normalized growth?
1

Check Oc1ccc(/C=C/c2cc(O)cc(O)c2)cc1 too.
0.992

====

Test: chemical genetic growth profiling, strain panel (AID 1159580);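 also: tested at 20 µM; growth read once vehicle control cultures reached saturation at 30 °C; 1 = growth at the plate median or of vehicle wells; lower values mean less growth of the strain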
Conditions: S. cerevisiae deletion strains, growth OD, locus YBR023C, strain chs3, active compounds read low
The campaign covered roughly 5,500 compounds. About 2,000 (36%) were called active. About 18% were inconclusive and are not listed. The list shows a part of the results.
Measurement type: normalized growth
Answer as a number with no unit attached.

Please review the following examples before continuing.
1) COc1ccc(CN(CCN(C)C)c2ncccn2)cc1 | 1.01
2) CCCNC(C)C(=O)Nc1ccccc1C (configuration not stated) | 1
3) C=CCc1cc(OC)c2c(c1OC)OCO2 | 0.902
4) C[C@@H]1CC2C3CCC4=CC(=O)C=C[C@]4(C)[C@@]3(F)[C@@H](O)C[C@]2(C)[C@@]1(O)C(=O)COP(=O)(O)O (some centres not stated) | 0.981

Item under review: C#C[C@]1(O)CCC2C3CCc4cc(O)ccc4C3CC[C@@]21C (some centres not stated) . Reported normalized growth?
0.996

Check CC1=CC(=O)CC(C)(C)C1(O)/C=C/C(C)=C\C(=O)O (configuration not stated) too.
1.03

Check OC1CCCCC1N1CCC(c2ccccc2)CC1 (configuration not stated) too.
0.999

Check CCCc1cc(OC)c2c(c1)OCO2 too.
0.991

Check Cc1cccc(CN2CCN(C(c3ccccc3)c3ccc(Cl)cc3)CC2)c1 (configuration not stated) too.
0.701

Check COc1cc(C)c2c(c1C=O)Oc1c(c(C)c(O)c3c1C(O)OC3=O)OC2=O (configuration not stated) too.
1.05

Check COc1ccc(-c2cc(C(F)F)nn2-c2ccc(S(N)(=O)=O)cc2)cc1F too.
0.992

Check CC1(C)O[C@@H]2CC3C4CCC5=CC(=O)C=C[C@]5(C)C4[C@@H](O)C[C@]3(C)[C@]2(C(=O)CO)O1 (some centres not stated) too.
1
